Experiment: Clinical study, steady state PK (Cycle 1 Day 15) after daily oral tablets of example 1
Format: in vivo, human
Details: human, in vivo, 200 mg qd (N = 7), median (minimum-maximum)
measured endpoint: Tmax (h)
# value in h; strip the unit string

Consider Cc1cc(C(=O)Nc2nc3cccc(Cl)c3n2[C@@H]2CCCCN(C(=O)/C=C/CN(C)C)C2)ccn1 . Its measured Tmax is 3

----------
Experiment: Clinical study, steady state PK (Cycle 1 Day 15) after daily oral tablets of example 1
Format: in vivo, human
Settings: human, in vivo, 200 mg qd (N = 7), geometric mean (CV %), read-out: T½ (converted)
Procedure: Non-small cell lung cancer patients with EGFR T790M mutation were enrolled in a clinical study and received escalating doses of EGF816 ranging from 100 mg to 225 mg daily oral doses by using the tablets as described in example 1.
measured endpoint: half-life (h)
Expressed in h, but write only the number.

The molecule listed as Cc1cc(C(=O)Nc2nc3cccc(Cl)c3n2[C@@H]2CCCCN(C(=O)/C=C/CN(C)C)C2)ccn1 [EGF816] has a reported half-life of 13

FYI, the data here is from patent US20180153899A1.
